Value source: PubChem BioAssay

Would you kindly list composite z-score for each of these compounds?
- Target or test system: Torsin-1A-interacting protein 2 (Homo sapiens) (UniProt Q8NFQ8)
- Sequence (Q8NFQ8 whole entry, looked up): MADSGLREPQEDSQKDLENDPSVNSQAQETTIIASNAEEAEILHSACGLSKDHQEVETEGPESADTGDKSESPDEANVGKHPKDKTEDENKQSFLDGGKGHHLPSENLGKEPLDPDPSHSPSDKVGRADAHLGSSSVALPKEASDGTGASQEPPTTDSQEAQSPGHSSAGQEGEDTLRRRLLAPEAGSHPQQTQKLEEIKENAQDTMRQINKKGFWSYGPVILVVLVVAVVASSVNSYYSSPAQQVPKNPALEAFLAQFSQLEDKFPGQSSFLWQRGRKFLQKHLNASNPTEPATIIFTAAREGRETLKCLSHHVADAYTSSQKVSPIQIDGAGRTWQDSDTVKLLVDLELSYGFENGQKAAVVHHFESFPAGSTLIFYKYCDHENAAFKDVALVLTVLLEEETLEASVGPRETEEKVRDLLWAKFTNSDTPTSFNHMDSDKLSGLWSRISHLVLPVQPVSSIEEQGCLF
- Assay comment: LULL1 binders on small-molecule microarray, primary screen, cell lysate, human LULL1 lysate, 635/667 nm fluorescence (AID 1092);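 also: probe is lysate of COS7 cells overexpressing human LULL1; score merges per-feature 667 nm fluorescence with signal-to-noise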
- Test settings: hLULL1 lysate binding, 635 nm fluorescence, higher = more signal
Respond with the number and no other words.

Item COC(=O)[C@H](CCSC)NC(=O)CC=C[C@@H](C)CO with Torsin-1A-interacting protein 2 (Homo sapiens) (UniProt Q8NFQ8) - composite z-score?
1.3

Item CON=C(C)CCN1CCc2nc(-c3ccccc3)c(-c3ccccc3)cc2C1 with Torsin-1A-interacting protein 2 (Homo sapiens) (UniProt Q8NFQ8) - composite z-score?
-0.919

Item CCOC(=O)[C@H](Cc1ccccc1)NC(=O)CCC1CC(OC(=O)NCc2ccc3c(c2)OCO3)CC2(CCCC(COC(=O)NCCCN3CCCC3=O)O2)O1 (stereo partly drawn) with Torsin-1A-interacting protein 2 (Homo sapiens) (UniProt Q8NFQ8) - composite z-score?
2.08

Item CCOC(=O)[C@H](CC(C)C)NC(=O)CCC1CC(OC(=O)NCc2ccc3c(c2)OCO3)CC2(CCCC(COC(=O)NCCc3ccccc3OC)O2)O1 (stereo partly drawn) with Torsin-1A-interacting protein 2 (Homo sapiens) (UniProt Q8NFQ8) - composite z-score?
1.99

Item O=C1C[C@@H](O)[C@@H](O)[C@@H]2[C@@H]3C(=O)N(C4CCCCC4)C(=O)[C@@H]3CC[C@@H]12 with Torsin-1A-interacting protein 2 (Homo sapiens) (UniProt Q8NFQ8) - composite z-score?
0.905

Item C=CC[C@@H]1C=CC(ON=C(C)C)[C@@H](CO)O1 (stereo partly drawn) with Torsin-1A-interacting protein 2 (Homo sapiens) (UniProt Q8NFQ8) - composite z-score?
-0.632

Item CCc1cc2c(nc1CC)CCN(CCC(C)=NO[C@@H]1O[C@H](COC(C)=O)[C@@H](OC(C)=O)[C@H](OC(C)=O)[C@H]1OC(C)=O)C2 with Torsin-1A-interacting protein 2 (Homo sapiens) (UniProt Q8NFQ8) - composite z-score?
0.809

Item CCOC(=O)[C@H](Cc1ccccc1)NC(=O)CCC1CC(OC(=O)NCc2cccc3ccccc23)CC2(CCCC(COC(=O)NCC3CCCCC3)O2)O1 (stereo partly drawn) with Torsin-1A-interacting protein 2 (Homo sapiens) (UniProt Q8NFQ8) - composite z-score?
1.4
